# credit: patent US20170002055A1

Target: HLA-A*02:01 (Homo sapiens, UniProt P04439, D140Y/D185E/D98H/E176V/E277Q/G131W/G231S/I119V/I121R/I166T/I218V/L300P/L318F/N151K/N90K/P208A/P217A/Q86G/Q94H/R138H/R169H/T345S)
Test: MHC binding assay (UV-ligand exchange, β2m ELISA, peptide exchange yield)
Settings: MHC class I binding score; binding to HLA-A*02:01 ranged by peptide exchange yield (UV-ligand exchange, β2m ELISA)
experimentalEndpoint: Peptide exchange

// worked examples, Peptide exchange included
Given 458 (SLIDKLYNI; listed as Homo sapiens) [compound 458] , state its recorded Peptide exchange. “++” (≧20% = ++)

Moving on to the next substance: 342 (HIYDKVMTV; listed as Homo sapiens) [compound 342] “+++” (≧50 = +++)

Now consider 499 (KIFDIDEAEEGV; listed as Homo sapiens) [compound 499] and answer again. “++” (≧20% = ++)

Follow-up item: 120 (ALLGIPLTLV; listed as Homo sapiens) [compound 120] “+++” (≧50 = +++)

What do we get for 236 (GLLEAKVSL; listed as Homo sapiens) [compound 236] ? “+++” (≧50 = +++)

What do you get for 106 (LLYDAVHIVSV; listed as Homo sapiens) [compound 106] ? “+++” (≧50 = +++)

Moving on to 57 (TLAELQPPVQL; listed as Homo sapiens) [compound 57] “+++” (≧50 = +++)

Quick one: 147 (SLLEAVSFL; listed as Homo sapiens) [compound 147] “+++” (≧50 = +++)

Others:
Fill in: Peptide exchange of 100 (YLLSTNAQL; listed as Homo sapiens) [compound 100] is ___ “++++” (≧75% = ++++)
